test system: Alternaria solani; assay: In vivo preventive test on Alternaria solani (tomato); conditions: preventive spray, 500 ppm of active ingredient, evaluated 7 days after inoculation

| Molecule | System Tested | Efficacy |
| --- | --- | --- |
| CC(NC(=O)c1c(C(F)F)nn(C)c1Cl)c1cc(Cl)ccc1Cl (stereo not drawn) | Alternaria solani | 95% |
| Cn1nc(C(F)F)c(C(=O)NCc2ncc(C(F)(F)F)cc2Cl)c1F | Alternaria solani | 70% |
| CN(Cc1ccccc1[Si](C)(C)C)C(=O)c1c(C(F)F)nn(C)c1F | Alternaria solani | 90% |
| Cn1nc(C(F)F)c(C(=O)NC2(c3ccc(C(F)(F)F)cc3)CCCC2)c1F | Alternaria solani | 70% |
| C=CCN(Cc1ccccc1[Si](C)(C)C)C(=O)c1c(C(F)F)nn(C)c1F | Alternaria solani | 80% |
| Cn1nc(C(F)F)c(C(=O)NC(C)(C)c2ccccc2Cl)c1F | Alternaria solani | 94% |
| CC(c1cc(Cl)cc(Cl)c1)N(C)C(=O)c1c(C(F)F)nn(C)c1F (stereo not drawn) | Alternaria solani | 100% |
| C=CCN(Cc1ccccc1C(C)C)C(=O)c1c(C(F)F)nn(C)c1F | Alternaria solani | 95% |
| Cn1nc(C(F)F)c(C(=O)NC2(c3cc(Cl)ccc3Cl)CC2)c1F | Alternaria solani | 94% |

---

This listing pairs compounds with measured Efficacy.
test system: Alternaria solani; test: In vivo preventive test on Alternaria solani (tomato); details: preventive spray, 500 ppm of active ingredient, evaluated 7 days after inoculation

| Compound | Measurement Unit | Efficacy |
| --- | --- | --- |
| CC(NC(=O)c1c(C(F)F)nn(C)c1Cl)c1ccccc1 (racemic) | % | 95 |
| CC(c1ncc(Cl)cc1Cl)N(C)C(=O)c1c(C(F)F)nn(C)c1F (centres unmarked) | % | 100 |
| Cn1nc(C(F)F)c(C(=O)NC2(c3ccc(Cl)cc3Cl)CC2)c1F | % | 94 |
| CC(c1ccccc1Cl)N(C)C(=O)c1c(C(F)F)nn(C)c1Cl (racemic) | % | 80 |
| CN(Cc1ncc(Cl)cc1Cl)C(=O)c1c(C(F)F)nn(C)c1Cl | % | 80 |

---

This listing pairs molecules with measured Efficacy.
test system: Alternaria solani; assay: In vivo preventive test on Alternaria solani (tomato); details: preventive spray, 500 ppm of active ingredient, evaluated 7 days after inoculation

| Molecule | System Tested | Efficacy / % |
| --- | --- | --- |
| Cn1nc(C(F)F)c(C(=O)NCc2ccc(Cl)cc2)c1F [Example 127] | Alternaria solani | 90 |
| CC(c1ccccc1Cl)N(C)C(=S)c1c(C(F)F)nn(C)c1F (racemic) [Example 18] | Alternaria solani | 95 |
| CC(NC(=O)c1c(C(F)F)nn(C)c1F)c1ccccc1 (racemic) [Example 2] | Alternaria solani | 93 |
| Cn1nc(C(F)F)c(C(=O)NCc2cccc(Oc3ccccc3)c2)c1F [Example 145] | Alternaria solani | 90 |
| CC(c1ccc(Oc2ccccc2)cc1)N(C)C(=O)c1c(C(F)F)nn(C)c1Cl (racemic) [Example 153] | Alternaria solani | 90 |
| CN(Cc1ccccc1Br)C(=O)c1c(C(F)F)nn(C)c1F [Example 105] | Alternaria solani | 95 |
| CCc1ccccc1CN(C(=O)c1c(C(F)F)nn(C)c1F)C1CCC1 [Example 12] | Alternaria solani | 90 |
| CC(NC(=O)c1c(C(F)F)nn(C)c1F)c1ccc(Cl)cc1Cl (stereo not drawn) [Example 36] | Alternaria solani | 94 |
| CCC(NC(=O)c1c(C(F)F)nn(C)c1Cl)c1ccc(Cl)cc1Cl (stereo not drawn) [Example 191] | Alternaria solani | 95 |

// provenance: patent US9084424B2
